# targetOfAssay: T1, HLA-A*02:01 (human)
# T1 construct: the tested peptide takes its place; also called peptide-receptive MHC molecules; MHC class I
# assayInfo: UV-ligand exchange, anti-β2m ELISA; grade of peptide exchange yield
quantityName: peptide exchange yield

- binder: "MQAPRAALVFA [MQAPRAALVFA (SEQ ID NO: 122)]"
  reportedResult: "≥ 75%"
- binder: "VLDEFYSSL [VLDEFYSSL (SEQ ID NO: 28)]"
  reportedResult: "50 to 75%"
- binder: "RQYPWGVVQV [RQYPWGVVQV (SEQ ID NO: 58)]"
  reportedResult: "20 to 50%"
- binder: "SVDGVIKEV [SVDGVIKEV (SEQ ID NO: 117)]"
  reportedResult: "50 to 75%"

# peptide exchange yield of FIIDNPQDLKV [FIIDNPQDLKV (SEQ ID NO: 14)] = 50 to 75%

# peptide exchange yield of LLSDVRFVL [LLSDVRFVL (SEQ ID NO: 112)] = 50 to 75%

# peptide exchange yield of TLLAHPVTL [TLLAHPVTL (SEQ ID NO: 27)] = 50 to 75%

# peptide exchange yield of SLQDTEEKSRS [SLQDTEEKSRS (SEQ ID NO: 78)] = 50 to 75%
